- system_under_test: HCV NS3/4A protease complex, BMS strain (UniProt P27958, species not given/STRAIN_BMS)
- Construct: other: NS3/4A BMS strain; activity range class; numeric values, unit not given; said of H77 and J4L6S; fused on or other part: A three-lysine solubilising tail at the C-terminus of NS4A; A His tag is implied by the pET21b vector and Ni-NTA purification; Both are printed for the H77 and J4L6S constructs and apply to BMS by inference
- Sequence (P27958 1027-1657, change not shown, one chain of several): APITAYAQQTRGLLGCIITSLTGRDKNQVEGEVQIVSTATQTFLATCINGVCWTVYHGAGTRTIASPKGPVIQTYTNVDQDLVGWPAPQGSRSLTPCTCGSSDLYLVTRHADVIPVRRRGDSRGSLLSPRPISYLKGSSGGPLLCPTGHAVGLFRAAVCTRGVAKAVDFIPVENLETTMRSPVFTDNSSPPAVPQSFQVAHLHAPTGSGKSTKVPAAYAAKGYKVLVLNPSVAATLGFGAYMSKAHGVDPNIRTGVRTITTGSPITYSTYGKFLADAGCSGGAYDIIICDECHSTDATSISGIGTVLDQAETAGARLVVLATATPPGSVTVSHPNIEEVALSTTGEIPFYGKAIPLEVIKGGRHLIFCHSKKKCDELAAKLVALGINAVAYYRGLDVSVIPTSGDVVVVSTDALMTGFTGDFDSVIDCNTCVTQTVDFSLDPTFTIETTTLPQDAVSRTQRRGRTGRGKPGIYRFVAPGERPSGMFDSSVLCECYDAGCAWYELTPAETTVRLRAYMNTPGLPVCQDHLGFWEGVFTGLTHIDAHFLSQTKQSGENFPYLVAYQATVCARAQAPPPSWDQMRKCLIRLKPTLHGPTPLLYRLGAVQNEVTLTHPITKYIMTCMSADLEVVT
- procedure_text: FRET peptide assay to monitor HCV NS3/4A proteolytic activity (BMS strain)
- Format: biochemical, Hepatitis C virus (genotype 1a)
- experimental_conditions: read-out: HCV Protease (IC50); NS3/4A BMS strain; activity range class
experimental_endpoint: IC50

compound	system_under_test	IC50
C=C[C@@H]1C[C@]1(NC(=O)[C@@H]1C[C@@H](Oc2ncc(OC)c3ccc(Cl)cc23)CN1C(=O)[C@@H](Nc1ccc(S(=O)(=O)NC(C)(C)C)cc1)C(C)(C)C)C(=O)NS(=O)(=O)C1CC1 [214 first isomer]	HCV NS3/4A protease complex, BMS strain (UniProt P27958, species not given/STRAIN_BMS)	0.6 to 20 nM
C=C[C@@H]1C[C@]1(NC(=O)[C@@H]1C[C@@H](Oc2nccc3cc(OC)ccc23)CN1C(=O)[C@H](Nc1nc(C)cc(C)n1)C(C)C)C(=O)NS(=O)(=O)C1CC1 [6 first isomer]	HCV NS3/4A protease complex, BMS strain (UniProt P27958, species not given/STRAIN_BMS)	20 to 200 nM

Look up IC50 for this compound: C=C[C@@H]1C[C@]1(NC(=O)[C@@H]1C[C@@H](Oc2ncc(OC)c3ccc(Cl)cc23)CN1C(=O)C(Nc1cccc(C)n1)C(C)(C)C)C(=O)NS(=O)(=O)C1CC1 (single isomer, unassigned) [28 second isomer]
20 to 200 nM

---

- system_under_test: HCV NS3/4A protease complex, BMS strain (UniProt P27958, species not given/STRAIN_BMS)
- Construct: other: NS3/4A BMS strain; activity range class; numeric values, unit not given; said of H77 and J4L6S; fused on or other part: A three-lysine solubilising tail at the C-terminus of NS4A; A His tag is implied by the pET21b vector and Ni-NTA purification; Both are printed for the H77 and J4L6S constructs and apply to BMS by inference
- procedure_text: FRET peptide assay to monitor HCV NS3/4A proteolytic activity (BMS strain)
- Format: biochemical, Hepatitis C virus (genotype 1a)
- experimental_conditions: read-out: HCV Protease (IC50); NS3/4A BMS strain; activity range class
pIC50: −log10 of the molar value.
experimental_endpoint: pIC50

For orientation, consider the following solved cases.
compound	system_under_test	pIC50
C=C[C@@H]1C[C@]1(NC(=O)[C@@H]1C[C@@H](Oc2ncc(OC)c3ccc(Cl)cc23)CN1C(=O)[C@H](Nc1ccccc1F)C(C)(C)C)C(=O)NS(=O)(=O)C1CC1 [234 second isomer]	HCV NS3/4A protease complex, BMS strain (UniProt P27958, species not given/STRAIN_BMS)	< 6.70
C=C[C@@H]1C[C@]1(NC(=O)[C@@H]1C[C@@H](Oc2nccc3cc(OC)ccc23)CN1C(=O)[C@@H](Nc1cc(C)cc(C)n1)C(C)(C)C)C(=O)NS(=O)(=O)C1CC1 [14 first isomer]	HCV NS3/4A protease complex, BMS strain (UniProt P27958, species not given/STRAIN_BMS)	7.70 to 9.22
C=C[C@@H]1C[C@]1(NC(=O)[C@@H]1C[C@@H](Oc2ncc(OC)c3ccc(Cl)cc23)CN1C(=O)C(Nc1cc(C)c([N+](=O)[O-])cn1)C(C)(C)C)C(=O)NS(=O)(=O)C1CC1 (stereo partly drawn)	HCV NS3/4A protease complex, BMS strain (UniProt P27958, species not given/STRAIN_BMS)	7.70 to 9.22
C=C[C@@H]1C[C@]1(NC(=O)[C@@H]1C[C@@H](Oc2ncc(OC)c3ccc(Cl)cc23)CN1C(=O)[C@H](Nc1cccc(F)c1F)C(C)(C)C)C(=O)NS(=O)(=O)C1CC1 [208 second isomer]	HCV NS3/4A protease complex, BMS strain (UniProt P27958, species not given/STRAIN_BMS)	< 6.70
C=C[C@@H]1C[C@]1(NC(=O)[C@@H]1C[C@@H](Oc2nccc3cc(OC)ccc23)CN1C(=O)C(Nc1cc(C)ccn1)C(C)C)C(=O)NS(=O)(=O)C1CC1 (single isomer, unassigned)	HCV NS3/4A protease complex, BMS strain (UniProt P27958, species not given/STRAIN_BMS)	7.70 to 9.22
C=C[C@@H]1C[C@]1(NC(=O)[C@@H]1C[C@@H](Oc2ncc(OC)c3ccc(Cl)cc23)CN1C(=O)[C@@H](Nc1cccc(C(=O)N(C)C)c1)C(C)(C)C)C(=O)NS(=O)(=O)C1CC1 [218 first isomer]	HCV NS3/4A protease complex, BMS strain (UniProt P27958, species not given/STRAIN_BMS)	7.70 to 9.22
C=C[C@@H]1C[C@]1(NC(=O)[C@@H]1C[C@@H](Oc2ncc(OC)c3ccc(Cl)cc23)CN1C(=O)[C@H](Nc1ccc(C(=O)N(C)C)cc1)C(C)(C)C)C(=O)NS(=O)(=O)C1CC1 [221 second isomer]	HCV NS3/4A protease complex, BMS strain (UniProt P27958, species not given/STRAIN_BMS)	6.70 to 7.70
C=C[C@@H]1C[C@]1(NC(=O)[C@@H]1C[C@@H](Oc2ncc(OC)c3ccc(Cl)cc23)CN1C(=O)[C@H](Nc1cccc(C(=O)NC(C)(C)C)c1)C(C)(C)C)C(=O)NS(=O)(=O)C1CC1 [212 second isomer]	HCV NS3/4A protease complex, BMS strain (UniProt P27958, species not given/STRAIN_BMS)	7.70 to 9.22

Entry C=C[C@@H]1C[C@]1(NC(=O)[C@@H]1C[C@@H](Oc2ncc(OC)c3ccc(Cl)cc23)CN1C(=O)[C@H](Nc1cccc(C(N)=O)c1)C(C)(C)C)C(=O)NS(=O)(=O)C1CC1 [217 second isomer] , system HCV NS3/4A protease complex, BMS strain (UniProt P27958, species not given/STRAIN_BMS): what pIC50 was measured?
< 6.70

This collection of values is drawn from patent US7772180B2.
